- system: human FXR (Homo sapiens, UniProt Q96RI1)
- Construct: expressed in transfected cells
- Sequence (Q96RI1 1-486): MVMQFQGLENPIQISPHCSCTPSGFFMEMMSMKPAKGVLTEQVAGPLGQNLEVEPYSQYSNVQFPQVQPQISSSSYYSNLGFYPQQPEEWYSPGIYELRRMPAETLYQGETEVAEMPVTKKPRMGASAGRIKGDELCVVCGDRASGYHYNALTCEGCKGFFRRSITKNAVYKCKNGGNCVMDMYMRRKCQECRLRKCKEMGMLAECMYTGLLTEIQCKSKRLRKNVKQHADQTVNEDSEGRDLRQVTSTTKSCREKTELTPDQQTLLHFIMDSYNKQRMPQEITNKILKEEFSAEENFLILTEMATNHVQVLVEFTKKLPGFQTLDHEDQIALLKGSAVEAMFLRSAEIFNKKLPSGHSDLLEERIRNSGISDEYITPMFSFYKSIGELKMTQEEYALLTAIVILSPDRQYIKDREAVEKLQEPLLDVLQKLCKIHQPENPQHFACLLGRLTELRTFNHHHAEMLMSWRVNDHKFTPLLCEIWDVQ
- protocol_text: FXR reporter assay (cellular FXR activities)
- Format: cell-based
- run_conditions: read-out: Emax (%) (GW4064 Emax = 100%)
- Experimental: FXR reporter assay was performed to measure cellular FXR activities of the compounds in the present invention. FXR reporter cells with high expression level of human FXR were seeded into 96-well cell culture plates, and incubated for 1-2 hours at 37° C. under 5% CO2 atmosphere. The invented compounds diluted in DMSO with various concentrations were added to the 96-well cell culture plates, and they were incubated for 24 hours at 37° C. under 5% CO2 atmosphere. […]
Where a name gives a salt, the structure may show the parent alone.
metric: Emax (%)
Express your answer in %, writing the number without its unit.

Per the records, this compound ( O=C(O)c1cccc(C#Cc2ccc(OCc3c(-c4ccccc4OC(F)(F)F)noc3C3CC3)cc2Cl)c1 ) has Emax equal to 97

Per the records, this compound ( COC(=O)c1cccc(C#Cc2ccc(OCc3c(-c4c(Cl)cccc4Cl)noc3C3CC3)cc2Cl)c1 ) has Emax equal to 85

Per the records, this compound ( O=C(O)c1cc(C#Cc2ccc(OCc3c(-c4c(Cl)cccc4Cl)noc3C3CC3)cc2Cl)cc(N2CCNCC2)c1 [Compound I-59, hydrochloride] ) has Emax equal to 90

Per the records, this compound ( COc1c(N)cc(C(=O)O)cc1C#Cc1ccc(OCc2c(-c3c(Cl)cccc3Cl)noc2C2CC2)cc1Cl ) has Emax equal to 95

Per the records, this compound ( CS(=O)(=O)Nc1cc(C#Cc2ccc(OCc3c(-c4c(Cl)cccc4Cl)noc3C3CC3)cc2Cl)cc(C(=O)O)c1 ) has Emax equal to 100

Per the records, this compound ( Nc1cc(C#Cc2ccc(OCc3c(-c4c(Cl)cccc4Cl)noc3C3CC3)cc2Cl)cc(C(=O)O)c1 ) has Emax equal to 97

---

- protocol_text: Mouse pharmacokinetics
- Type: in vivo
- Set-up: concentration or dose not given beside the values
- run_conditions: mouse; Balb/c male mice; blood samples 15 to 1140 min; LC-MS/MS; read-out: AUC
Can you tell me AUC for the items I'm about to list?
Express your answer in ng·h/mL, writing the number without its unit.

Per the records, this molecule ( CNc1cc(C#Cc2ccc(OCc3c(-c4c(Cl)cccc4Cl)noc3C3CC3)cc2Cl)cc(C(=O)O)c1 ) has AUC equal to 3310

Per the records, this molecule ( O=C(O)c1ccc(C#Cc2ccc(OCc3c(-c4c(Cl)cccc4Cl)noc3C3CC3)cc2Cl)cc1 ) has AUC equal to 2250

Per the records, this molecule ( CC(C)(C)OC(=O)Nc1cc(C#Cc2ccc(OCc3c(-c4c(Cl)cccc4Cl)noc3C3CC3)cc2Cl)cc(C(=O)O)c1 ) has AUC equal to 1010

Per the records, this molecule ( O=C(O)c1cncc(C#Cc2ccc(OCc3c(-c4c(Cl)cccc4Cl)noc3C3CC3)cc2Cl)c1 ) has AUC equal to 438
